These measurements were taken from patent US12649733B2.

System: MOLT-4 cells
Assay: MOLT-4 cell viability, MTT assay
Type: cell-based
Conditions: Homo sapiens, MOLT-4, 48 h, 48 h exposure
recorded metric: IC50 (nM)
Number in nM, nothing else.

* Cc1cc(N(C)c2nc(C(=O)O)c(C3CCN(C(=O)c4ccccc4)CC3)s2)nnc1Nc1nc2ccccc2s1 | 13100
* COCCCc1sc(N(CCCOC)c2cc(C)c(Nc3nc4ccccc4s3)nn2)nc1C(=O)O | 3590
* C/C(=C\c1sc(N(C)c2cc(C)c(Nc3nc4ccccc4s3)nn2)nc1C(=O)O)COc1ccc(C#CCN(C)C)cc1F | 96.2
* CNCC#Cc1ccc(OCCCc2sc(N(CCCCN(C)C)c3cc(C)c(Nc4nc5ccccc5s4)nn3)nc2C(=O)O)c(F)c1 | 20.3
* CNCC#Cc1ccc(OCCCc2sc(N(CCC[N+](C)(C)C)c3cc(C)c(Nc4nc5ccccc5s4)nn3)nc2C(=O)[O-])c(F)c1 | 611

# input compound: "Cc1cc(N(CCCCC[N+](C)(C)CCO)c2nc(C(=O)[O-])c(CCCOc3ccc(C#CCN(C)C)cc3F)s2)nnc1Nc1nc2ccccc2s1" ; wanted: its IC50
752

----------
Tested on: MOLT-4 cells
Assay: MOLT-4 cell viability, MTT assay
Assay type: cell-based
Details: Homo sapiens, MOLT-4, 48 h, 48 h exposure
pIC50: −log10 of the molar value.
pIC50 below 7 gives not satisfied; pIC50 at or above it gives satisfied.

Example results:
* Cc1cc(N(CCCN2CCOCC2)c2nc(C(=O)O)cs2)nnc1Nc1nc2ccccc2s1 | not satisfied
* Cc1cc(N(CCCC(O)C[N+]2(C)CCOCC2)c2nc(C(=O)[O-])c(CCCOc3ccc(C#CCN(C)C)cc3F)s2)nnc1Nc1nc2ccccc2s1 (stereo not drawn) | not satisfied
* COCCCNCCOC12CC3(C)CC(C)(CC(Cn4ncc(-c5ccc(N(C)c6cc(C)c(Nc7nc8ccccc8s7)nn6)nc5C(=O)O)c4C)(C3)C1)C2 | satisfied

In the following, a different compound is considered.
pIC50 >= 7 for "Cc1cc(N(C)c2ccc(-c3cnn(CC45CC6(C)CC(C)(C4)CC(OCCN4CCOCC4)(C6)C5)c3C)c(C(=O)O)n2)nnc1Nc1nc2ccccc2s1" ?
satisfied

----------
Test system: H146 cells
Test: H146 cell viability, MTT assay
Type: cell-based
Settings: Homo sapiens, NCI-H146, 48 h, 48 h exposure
recorded metric: pIC50
In simple prose, pIC50 is minus the logarithm base ten of a concentration in moles per litre.

Look over these answered cases.
• Cc1cc(N(CC(O)CO)c2nc(C(=O)O)c(CCCOc3ccc(C#CCN(C)C)cc3F)s2)nnc1Nc1nc2ccccc2s1 (centres unmarked) [Example 122] = 7.29
• CNCC(O)CCCN(c1cc(C)c(Nc2nc3ccccc3s2)nn1)c1nc(C(=O)O)c(CCCOc2ccc(C#CCN(C)C)cc2F)s1 (centres unmarked) [Example 150] = 7.77
• CCN(CC)CCNCC(O)CCCN(c1cc(C)c(Nc2nc3ccccc3s2)nn1)c1nc(C(=O)O)c(CCCOc2ccc(C#CCN(C)C)cc2F)s1 (centres unmarked) [Example 170] = 6.81

Lookup: pIC50 / H146 cells / Cc1cc(N(C)c2nc(C(=O)O)c(CC(O)COc3ccc(C#CCN(C)C)cc3F)s2)nnc1Nc1nc2ccccc2s1 (centres unmarked) [Example 164]
7.46

Missing value: pIC50, H146 cells, entry Cc1cc(N(CCCC(O)CN2CCNCC2)c2nc(C(=O)O)c(CCCOc3ccc(C#CCN(C)C)cc3F)s2)nnc1Nc1nc2ccccc2s1 (centres unmarked) [Example 172] . Fill in?
7.40

Field: pIC50 (H146 cells). Entry: Cc1cc(N(C)c2nc(C(=O)O)c(N3CC(OCc4ccccc4)C3)s2)nnc1Nc1nc2ccccc2s1 [Example 68]
5.59

Lab note: need pIC50 for Cc1cc(N(CCCCO)c2nc(C(=O)O)c(CCCOc3ccc(C#CC[N+](C)(C)CCCS(=O)(=O)[O-])cc3F)s2)nnc1Nc1nc2ccccc2s1 [Example 130] on H146 cells, anyone have it?
6.70

Under H146 cells: pIC50 value of Cc1cc(N(C)c2nc(C(=O)O)c(CCCOc3ccc(C#CCN4CCCCC4)cc3F)s2)nnc1Nc1nc2ccccc2s1 [Example 204] ?
8.14

Request body: readout pIC50, system H146 cells, query Cc1cc(N(CCCC(O)CN2CCC(N)CC2)c2nc(C(=O)O)c(CCCOc3ccc(C#CCN(C)C)cc3F)s2)nnc1Nc1nc2ccccc2s1 (centres unmarked) [Example 171] . Return the value.
6.96

Report pIC50 for Cc1c(Nc2nc(C(=O)O)c(CCCOc3ccc(C#CCN(C)C)cc3F)s2)nnc(Nc2nc3ccccc3s2)c1C [Example 3] tested on H146 cells.
7.38

Give pIC50 (H146 cells) of the following molecule: CCN(CC)CCNCCCCCN(c1cc(C)c(Nc2nc3ccccc3s2)nn1)c1nc(C(=O)O)c(CCCOc2ccc(C#CCN(C)C)cc2F)s1 [Example 182]
6.70

State its pIC50 on H146 cells: O=C(O)c1cccc(Nc2nnc(Nc3nc4ccccc4s3)c3c2CCCC3)n1 [Example 24]
5.16
